Hey, just so you know, these numbers are from patent US20260151494A1.

- assayed_target: T1, human CD71 extracellular domain (CD71-ECD) (human, UniProt P02786 89-760)
- T1 construct: also called hCD71; human CD71-ECD
- T1 sequence (P02786 89-760): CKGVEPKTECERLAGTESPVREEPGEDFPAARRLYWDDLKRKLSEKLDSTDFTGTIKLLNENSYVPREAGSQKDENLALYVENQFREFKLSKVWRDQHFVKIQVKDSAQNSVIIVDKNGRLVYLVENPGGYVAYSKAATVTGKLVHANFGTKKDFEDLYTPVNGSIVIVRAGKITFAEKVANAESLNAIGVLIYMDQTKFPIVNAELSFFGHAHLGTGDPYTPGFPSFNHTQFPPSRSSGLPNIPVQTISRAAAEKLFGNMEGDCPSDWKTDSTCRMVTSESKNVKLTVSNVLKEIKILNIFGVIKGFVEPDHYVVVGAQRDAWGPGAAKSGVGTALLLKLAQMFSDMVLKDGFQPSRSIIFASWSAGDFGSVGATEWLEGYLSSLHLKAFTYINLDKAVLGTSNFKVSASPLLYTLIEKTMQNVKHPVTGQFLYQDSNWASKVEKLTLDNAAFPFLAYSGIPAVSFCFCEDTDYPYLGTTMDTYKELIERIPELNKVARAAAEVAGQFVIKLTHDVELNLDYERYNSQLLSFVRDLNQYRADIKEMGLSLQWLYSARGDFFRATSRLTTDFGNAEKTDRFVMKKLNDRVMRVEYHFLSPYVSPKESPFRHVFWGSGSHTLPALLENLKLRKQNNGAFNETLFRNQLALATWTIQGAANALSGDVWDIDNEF
- test_name: primary ELISA; note: test concentration or dose not given here
Recorded RLU for the following binders
Give just the numeric value; RLU need not be written.

# binder, reported_measurement
measured = [
    ("CD71-binding FN3 domain SEQ ID NO: 269 (designed binder) MSLPAPKNLVVSRVTEDSARLSWTAPDAAFDSFEIGYFENDYFGEAIVLTVPGSERSYDLTGLKPGTEYVVFIGGVKGGNWSAPLSAIFTT", "4.35e+06"),
    ("CD71-binding FN3 domain SEQ ID NO: 254 (designed binder) MSLPAPKNLVVSRVTEDSARLSWTAPDAAFDSFEIGYFENLYLGEAIVLWVPGSERSYDLTGLKPGTEYWVQIGGVKGGNWSAPLSAIFTT", "3.29e+06"),
    ("CD71-binding FN3 domain SEQ ID NO: 267 (designed binder) MSLPAPKNLVVSRVTEDSARLSWTAPDAAFDSFEISYWEHTFNGEAIILFVPGSERSYDLTGLKPGTEYYVTIGGVKGGAWSPPLWAEFTT", "3.12e+06"),
    ("CD71-binding FN3 domain SEQ ID NO: 324 (designed binder) MSLPAPKNLVVSRITEDSARLSWTAPDAAFDSFEIGYFENLYLGEAIVLTVPGSERSYDLTGLKPGTEYWVQIGGVKGGNWSAPLSAISTT", "3.13e+06"),
    ("CD71-binding FN3 domain SEQ ID NO: 331 (designed binder) MSLPAPKNLVVSRVTEDSARLSWTAPDAAFDSFFIGYLEPQPPGEAIHLYVPGSERSYDLTGLKPGTEYNVTIQGVKVGFPSEPLIANFTT", "4.66e+06"),
    ("CD71-binding FN3 domain SEQ ID NO: 261 (designed binder) MSLPAPKNLVVSRVTEDSARLSWTAPDAAFDSFYIAYAEPRPDGEAILLWVPGSERSYDLTGLKPGTEYSVLIHGVKGGLLSSPLHAYFTT", "3.43e+06"),
]

// sample CD71-binding FN3 domain SEQ ID NO: 322 (designed binder) MSLPAPKNLVVSRVTEDSARLSWTAPDAAFDSFEIGYFEITRYGEAIILFVPGSERSYDLTGLKPGTEYWVQIGGVKGGNWSAPLSAIFTT , its RLU was 3.38e+06

// recorded RLU for CD71-binding FN3 domain SEQ ID NO: 296 (designed binder) MSLPAPKNLVVSRVTEDSARLSWTAPDAAFDSFDIGYFELTWYGEAIVLTVPGSERSYDLTGLKPGTEYWVSIGGVKGGIWSSPLSAIFTT : 3.39e+06

Looking up CD71-binding FN3 domain SEQ ID NO: 303 (designed binder) MSLPAPKNLVVSRVTEDSARLSWTAPDAAFDSFWIEYWEGWKSGEAIVLTVPGSERSYDLTGLKPGTEYRVHIWGVKGGIVSWPLSAIFTT , I found its RLU recorded as 1.86e+06
